B1: EEHEE_rd4_0763 (parent)
chain: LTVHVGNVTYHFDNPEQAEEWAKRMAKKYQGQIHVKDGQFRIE

variants of: B1; experiment: folding stability dG (cDNA display proteolysis); higher = more stable; conditions: PBS, room temperature
Each entry gets n if its folding stability dG stays under 1 kcal/mol, and y if its folding stability dG is 1 kcal/mol or above.

| VARIANT DESCRIPTOR | ASSIGNED CATEGORY |
| --- | --- |
| Q17S | y |
| T9V | y |
| V8L | y |
| K36Q | y |
| E43D | y |
| W21R | n |
| H4I | y |
| Q39M | y |
| N7K | y |
| V5Y | y |
| E16L | y |
| T2Q | y |
| K27I | y |
| K28I | y |
| V3F | y |
| I33L | y |
| Y29Q | n |
| V5E | n |
| E19I | y |
| P15N | y |
| Q39H | y |
| A26W | y |
| H4Y | y |
| K27R | y |
| V5C | y |
| F12I | n |
| T9W | y |
| E16C | y |
| Q17F | y |
| Q30N | y |
| Y29G | n |
| F40V | y |
| Q30M | y |
| H34M | y |
| I33S | n |
| Q39T | y |
| Q30S | y |
| M25H | n |
| A26D | n |
| K28Q | y |
| R24N | y |
| I33A | y |
| F12H | n |
| I42W | y |
| E16N | y |
| Q17G | y |

Every entry's value here was drawn from the MegaScale stability set (Tsuboyama et al. 2023).
